Reference source for all entries: the supplement of paper PMC11208160

Assay: recombinant UMI read abundance after kanamycin selection (control-corrected) (log10(CPM+1)); higher = more efficient recombination; extreme values may be limits of the assay; sequences stand for … in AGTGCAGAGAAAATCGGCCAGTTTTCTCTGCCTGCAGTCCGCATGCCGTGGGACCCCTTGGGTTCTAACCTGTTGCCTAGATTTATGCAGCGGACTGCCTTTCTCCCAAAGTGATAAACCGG…AGGTTGGTTTCACT; site = the 11-nt donor;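 also: IS621 bridge recombinase in Escherichia coli cells against a fixed T5 target plasmid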
measurement-type: recombinant UMI read abundance (log10)
I only need the number, thanks.

Need recombinant UMI read abundance (log10), item CGCCACCCATGGACCGGTTTTCCCGGTAATCCGTATTTGTT (site TGCCACCCTAA)
0.00618

Need recombinant UMI read abundance (log10), item TACTGGTCATGGACCGGTTTTCCCGGTAATCCGTATTTGAC (site TACTGGTCTGT)
1.07

Need recombinant UMI read abundance (log10), item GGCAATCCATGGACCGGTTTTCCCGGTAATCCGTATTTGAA (site GGCAATCCTGT)
0

Need recombinant UMI read abundance (log10), item CGGGAGTCATGGACCGGTTTTCCCGGTAATCCGTATTTGAC (site CGGGAGTCTGG)
1.25

Need recombinant UMI read abundance (log10), item CCCCACCCATGGACCGGTTTTCCCGGTAATCCGTATTTGTA (site CCCCACGCTTA)
0.0484

Need recombinant UMI read abundance (log10), item TACTTGACATGGACCGGTTTTCCCGGTAATCCGTATTTGTT (site TACTTGACTAC)
0.0106

Need recombinant UMI read abundance (log10), item CAAGCGGCATGGACCGGTTTTCCCGGTAATCCGTATTTGTG (site CAAGCGCCTCA)
0.00533

Need recombinant UMI read abundance (log10), item AAAGGGACATGGACCGGTTTTCCCGGTAATCCGTATTTGAG (site AAAGGGACTCT)
1.76

Need recombinant UMI read abundance (log10), item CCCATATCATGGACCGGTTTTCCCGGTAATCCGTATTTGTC (site CCAATATCTGA)
0

Need recombinant UMI read abundance (log10), item GTCAGAACATGGACCGGTTTTCCCGGTAATCCGTATTTGGC (site GTCAGAACTGC)
1.57

Need recombinant UMI read abundance (log10), item CAAGCGCCATGGACCGGTTTTCCCGGTAATCCGTATTTGTC (site CAAGCGCCTAA)
0.486

Need recombinant UMI read abundance (log10), item GTAGTAGCATGGACCGGTTTTCCCGGTAATCCGTATTTGCG (site GTAGTTGCTCG)
1.32

Need recombinant UMI read abundance (log10), item CAATCATCATGGACCGGTTTTCCCGGTAATCCGTATTTGAT (site CAATCATCTAT)
0.435

Need recombinant UMI read abundance (log10), item CAACGCTCATGGACCGGTTTTCCCGGTAATCCGTATTTGAA (site CAACGCTCTTT)
2.06

Need recombinant UMI read abundance (log10), item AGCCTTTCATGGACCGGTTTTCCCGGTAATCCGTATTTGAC (site AGCCGTTCTGT)
0

Need recombinant UMI read abundance (log10), item CGTTGATCATGGACCGGTTTTCCCGGTAATCCGTATTTGCT (site CGTTGATCTAG)
2.78

Need recombinant UMI read abundance (log10), item GCATGGTCATGGACCGGTTTTCCCGGTAATCCGTATTTGGA (site GCATGGTCTTC)
1.31

Need recombinant UMI read abundance (log10), item AGCCTAACATGGACCGGTTTTCCCGGTAATCCGTATTTGTT (site AGCCTAGCTAA)
0.0126
